Taken from ChEMBL document CHEMBL1201862.

Test system: HCT-116
Assay: NCI tumour cell line growth inhibition, 48 h
The source made the active and inactive calls. Rule as the data show it: active = GI50 up to about 1.1 µM and inactive = higher.
Please answer using one outcome listed in yes (active), no (inactive)

Query :: Outcome logged for C=C1C(=O)OC2C3C(=C)[C@@H](OC(C)=O)CC3C(C)=CC(OC(=O)C(C)(O)C(C)OC(C)=O)[C@@H]12 (stereo partly specified) in this assay:
Result :: no

Query :: Entry to check: CNC(=O)NCCN1N=C(C)/C(=C\c2ccccc2)CC1=O
Result :: no

Query :: Entry to check: O=S1(=O)COc2ccccc2-c2ncncc21
Result :: no

Query :: Entry to check: Cc1ccc(NP(=O)(Oc2ccccc2)N(CCCl)CCCl)cc1 (stereo unspecified)
Result :: no

Query :: Entry to check: C1CCC(N=C2N(C3CCCCC3)C(=NC3CCCCC3)N2C2CCCCC2)CC1
Result :: no

Query :: Entry to check: CCCc1cn2c(/C=N/NC(=N)N)c(-c3ccc([N+](=O)[O-])cc3)nc2s1
Result :: yes

Query :: Entry to check: Fc1cc2nc3n(c2cc1F)C(c1c(F)cccc1F)SC3 (stereo unspecified)
Result :: no

Query :: Entry to check: NCCCSCC(=O)O
Result :: no

Query :: Entry to check: CC(=O)c1c(SCCN2CCCC2)n(-c2ccccc2)c(=S)n(-c2ccccc2)c1=O
Result :: no

Query :: Entry to check: CCCCN(c1ccccc1)c1ncnc2c1cnn2C
Result :: no

Query :: Entry to check: N#CC(C#N)=c1c(=O)c2c3ccccc3cc3cccc1c32
Result :: no

Query :: Entry to check: C=C1C(=O)OC2/C=C(\C)CC/C=C(\C)CC(OC(=O)/C(=C/CO)CO)[C@@H]12 (stereo partly specified)
Result :: no

Query :: Entry to check: CC1CCC(=O)C(C(=O)CC2CC(=O)N(C)C(=O)C2)C1 (stereo unspecified)
Result :: no

Query :: Entry to check: O=C(O)CSSCC(=O)O
Result :: no

Query :: Entry to check: O=C(c1cccnc1)N1N=C(c2ccccc2)CC1(O)c1cc(F)c(Cl)cc1Cl (stereo unspecified)
Result :: no

Query :: Entry to check: O=C(Nc1ccc(Cl)cc1)c1cc(S(=O)(=O)Nc2nnc3c(Cl)cc(C(F)(F)F)cn23)c(S)cc1Cl
Result :: no

Query :: Entry to check: C/C=C1/C(=O)O[C@]23C=C[C@@H]4C(C(=O)OC)=CO[C@H](O[C@@H]12)[C@@H]43
Result :: yes

Query :: Entry to check: CCCCn1c2c(n(CCCC)c1=[Se])-c1c(n(CCCC)c(=[Se])n1CCCC)S[Se][Se]S2
Result :: no

Query :: Entry to check: Cc1ccc(S(=O)(=O)N2CCCCC2CCO)cc1 (stereo unspecified)
Result :: no

Query :: Entry to check: CN(CCCNC(=O)c1cn(C)c2c1ccc1cc(Cl)ccc12)CCCNC(=O)c1cn(C)c2c1ccc1cc(Cl)ccc12
Result :: no

Query :: Entry to check: Clc1ccc(-c2cn3c(nc4ccccc43)c(/C=C/c3ccco3)n2)cc1
Result :: no
